Tested on: UACC-62
Test: NCI tumour cell line growth inhibition, 48 h
Active and inactive are the calls of the source. Rule as the data show it: active = GI50 up to about 1.1 µM and inactive = higher.
Pick one and only one: YES = active, NO = inactive

{"columns": ["compound", "assignedLabel"],
 "data": [
  ["CCOc1ccc2c(c1)[n+]([O-])c(-c1ccccc1)c(N)[n+]2[O-]", "NO"],
  ["CCOP(=O)(O)C(Nc1ccc(/N=N/c2ccccc2)cc1)c1cccc(C(Nc2ccc(/N=N/c3ccccc3)cc2)P(=O)(O)OCC)c1 (stereo not drawn)", "NO"],
  ["O=C(/C=C/c1cc(O)c(O)cc1O)OCCc1ccccc1", "NO"],
  ["O=C1c2cccnc2-c2nccc3c2c1nc1ccc(Br)cc13", "YES"],
  ["CC(N)/C(N)=N/O (stereo not drawn)", "NO"]
]}

For CN(Cc1cc(C(C)(C)C)cc(Br)c1O)Cc1cc(C(C)(C)C)cc(Br)c1O , what call appears in the results of this test?
NO

Would you kindly repeat that for Cc1ccc(-[n+]2cc([O-])on2)cc1 ?
NO

Would you kindly repeat that for N#C/C(=C/NC(=S)c1ccncc1)C(N)=O ?
NO

###

Test system: MDA-MB-231
Test: NCI tumour cell line growth inhibition, 48 h
Activity calls are given as the source filed them. No stated cut-off is given here; in the data, active = GI50 up to about 1.1 µM and inactive = higher.
Pick one and only one: active, inactive

{"columns": ["molecule", "assignedLabel"],
 "data": [
  ["Cc1cnc2[nH]c(-c3ccccc3)cc(=O)c2c1", "active"]
]}

For O=C(NCCCCN(CCCNC(=O)C(F)(F)F)Cc1ccccc1)C(F)(F)F , what call appears in the results of this test?
inactive

Would you kindly repeat that for c1ccc2c(c1)c1ccccc1n2Cn1c2ccccc2c2ccccc21 ?
inactive

Would you kindly repeat that for COc1cc2c3c(c1)CCCN3CCC2 ?
inactive

Would you kindly repeat that for O=C(O)CN1CCN2CCCCCCCCN(CC1)CCN(CC(=O)O)CC2 ?
inactive

Would you kindly repeat that for O=C1c2cccnc2-c2nccc3c2c1nc1ccc(Br)cc13 ?
active

Would you kindly repeat that for Cc1cc(S(=O)(=O)[N-]/C(=N/S(=O)(=O)c2ccc(Cl)cc2)[n+]2ccc(N(C)C)cc2)c(SCC(=O)O)cc1Cl ?
inactive

Would you kindly repeat that for CC(C)(CC#N)c1cc(CC(C)(C)c2cc(CC(C)(C)c3cc(C(C)(C)C4(C)OCCO4)no3)no2)no1 ?
inactive

Would you kindly repeat that for O=C(O)C(Cc1c[nH]cn1)N1C(=O)c2ccccc2C1=O (stereo not given) ?
inactive

Would you kindly repeat that for CCc1c(C)c(C#N)c(=S)n(C2OC(COC(C)=O)C(OC(C)=O)C(OC(C)=O)C2OC(C)=O)c1-c1ccccc1 (stereo not given) ?
inactive

###

Tested on: NCI-H23
Test: NCI tumour cell line growth inhibition, 48 h
Active and inactive are the calls of the source. Rule as the data show it: active = GI50 up to about 1.1 µM and inactive = higher.
Pick one and only one: active, inactive

Previously resolved entries follow.
{"columns": ["compound", "assignedLabel"],
 "data": [
  ["Cn1c(=O)nc2n(-c3ccc(Cl)c(C(F)(F)F)c3)c3ccccc3nc-2c1=O", "inactive"],
  ["Cc1ccc(S(=O)(=O)N/N=C2\\C=CC3(CC2)C(=O)N(I)c2ccccc23)cc1 (centres undefined)", "inactive"],
  ["CC(=O)/C(=C/N1C(=O)CC(=O)NC1=S)C(=O)Nc1ccccc1C", "inactive"]
]}

For CC(=O)OCC1OC(OC(C)=O)C(Nc2ncc(-c3ccc(C)cc3)s2)C(OC(C)=O)C1OC(C)=O (centres undefined) , what call appears in the results of this test?
inactive

Would you kindly repeat that for COc1cccc2c1C(=O)c1c(O)c3c(c(O)c1C2=O)C[C@@](O)(C(=O)CO)C[C@@H]3OC1CC(N2CCOCC2C#N)C(O)C(C)O1 (some centres undefined) ?
active

Would you kindly repeat that for O=c1c2ccccc2sc2ccccc12 ?
inactive

Would you kindly repeat that for C=CCN1C[C@H](C)N([C@@H](c2ccc(C(=O)N3CCCCC3)cc2)c2cccc(OC)c2)C[C@H]1C ?
inactive

Would you kindly repeat that for CCOC(=O)C1C(O)CC2c3ccccc3-c3ccccc3C21 (centres undefined) ?
inactive

Would you kindly repeat that for C(=N\Nc1nnc(-c2nnc(N/N=C/c3ccccc3)o2)o1)/c1ccccc1 ?
inactive
